# System: CAL-85-1
# TEST_DETAILS: normalised response (% of control), CellTiter-Glo; higher = more viable cells (100 = DMSO, 0 = benzethonium chloride kill control)
# CONDITION_INFO: incubation time: 72 h
ENDPOINT_LABEL: normalised response (%)
Give the value, in units of %, as a plain number.

INSERT INTO results (molecule, reported_result) VALUES
  ('C=CC[C@@H]1/C=C(\C)C[C@H](C)C[C@H](OC)[C@H]2O[C@@](O)(C(=O)C(=O)N3CCCC[C@H]3C(=O)O[C@H](/C(C)=C/[C@@H]3CC[C@@H](O)[C@H](OC)C3)[C@H](C)[C@@H](O)CC1=O)[C@H](C)C[C@@H]2OC [Tacrolimus] (10 nM)', 99);

The reported value for Nc1nc(Cl)nc2c1ncn2[C@H]1C[C@H](O)[C@@H](CO)O1 [Cladribine] (1 nM) in terms of normalised response is 102

The reported value for CN1CC[C@H](c2c(O)cc(O)c3c(=O)cc(-c4ccccc4Cl)oc23)[C@H](O)C1 [Alvocidib] (1 nM) in terms of normalised response is 110

* * *

# Tested on: BT-549
# TEST_DETAILS: normalised response (% of control), CellTiter-Glo; higher = more viable cells (100 = DMSO, 0 = benzethonium chloride kill control)
# CONDITION_INFO: incubation time: 72 h
ENDPOINT_LABEL: normalised response
Please provide the amount together with its unit, number first.

INSERT INTO assay_data (molecule, reported_result) VALUES
  ('COc1cccc2cc(-c3nc([C@H]4CC[C@H](C(=O)O)CC4)n4ncnc(N)c34)[nH]c12 [OSI-027] (1000 nM)', '74.6%'),
  ('Clc1ccc(C(c2ccccc2Cl)C(Cl)Cl)cc1 (centres undefined) [Mitotane] (1 nM)', '108%'),
  ('CC(=O)O[C@]1(C(C)=O)CC[C@H]2[C@@H]3C=C(C)C4=CC(=O)CC[C@]4(C)[C@H]3CC[C@@]21C [Megestrol acetate] (10 nM)', '100%');

Field: next molecule
The reported value for Cc1ccc(F)c(NC(=O)Nc2ccc(-c3cccc4[nH]nc(N)c34)cc2)c1 [Linifanib] (0.1 nM) in terms of normalised response is 97%

* * *

# Lookup of reported normalised response keyed by entry
# System: MCF-10A
# TEST_DETAILS: normalised response (% of control), CellTiter-Glo; higher = more viable cells (100 = DMSO, 0 = benzethonium chloride kill control)
# CONDITION_INFO: incubation time: 72 h
Give the value, in units of %, as a plain number.

Some compounds with recorded normalised response:
INSERT INTO measurements (compound, endpoint_label, reported_result) VALUES
  ('O=C(c1ccc(C(=O)N2CCC(N3CCCC3)CC2)c(Nc2ccccc2)c1)N1CCC(N2CCCC2)CC1 [UNC1215] (30 nM)', 'normalised response', 103),
  ('CC(=O)O[C@]1(C(C)=O)CC[C@H]2[C@@H]3C=C(C)C4=CC(=O)CC[C@]4(C)[C@H]3CC[C@@]21C [Megestrol acetate] (1 nM)', 'normalised response', 101),
  ('C=CCNC1=C2C[C@@H](C)C[C@H](OC)[C@H](O)[C@@H](C)/C=C(\C)[C@H](OC(N)=O)[C@@H](OC)/C=C\C=C(/C)C(=O)NC(=CC1=O)C2=O [Tanespimycin] (10 nM)', 'normalised response', 105),
  ('CN1CC[C@H](c2c(O)cc(O)c3c(=O)cc(-c4ccccc4Cl)oc23)[C@H](O)C1 [Alvocidib] (1 nM)', 'normalised response', 95.2);

The reported value for S=c1[nH]cnc2nc[nH]c12 [Mercaptopurine] (1 nM) in terms of normalised response is 95.3

The reported value for COc1cccc2c1C(=O)c1c(O)c3c(c(O)c1C2=O)C[C@@](O)(C(=O)CO)C[C@@H]3O[C@H]1C[C@H](N)[C@H](O)[C@H](C)O1 [Doxorubicin] (1 nM) in terms of normalised response is 110

The reported value for Nc1ccn([C@@H]2O[C@H](CO)[C@@H](O)[C@@H]2O)c(=O)n1 [Cytarabine] (1 nM) in terms of normalised response is 112

The reported value for CCN1CCN(c2ccc(Nc3cc(N(C)C(=O)Nc4c(Cl)c(OC)cc(OC)c4Cl)ncn3)cc2)CC1 [NVP-BGJ398] (1 nM) in terms of normalised response is 108

* * *

# Lookup of reported normalised viability keyed by entry
# Test system: CAL-51
# TEST_DETAILS: normalised viability (% of control), CellTiter-Blue; higher = more viable cells (about 100 = DMSO control)
# CONDITION_INFO: incubation time: 72 h
Give the value, in units of %, as a plain number.

INSERT INTO results (compound, endpoint_label, measurement_units, reported_result) VALUES
  ('Nc1nc(Cl)nc2c1ncn2[C@H]1C[C@H](O)[C@@H](CO)O1 [Cladribine] (300 nM)', 'normalised viability', '%', 104);

The reported value for C=CC[C@@H]1/C=C(\C)C[C@H](C)C[C@H](OC)[C@H]2O[C@@](O)(C(=O)C(=O)N3CCCC[C@H]3C(=O)O[C@H](/C(C)=C/[C@@H]3CC[C@@H](O)[C@H](OC)C3)[C@H](C)[C@@H](O)CC1=O)[C@H](C)C[C@@H]2OC [Tacrolimus] (3000 nM) in terms of normalised viability is 99.2

The reported value for Clc1ccc(C(c2ccccc2Cl)C(Cl)Cl)cc1 (stereo not given) [Mitotane] (3000 nM) in terms of normalised viability is 111

The reported value for COc1cccc2cc(-c3nc([C@H]4CC[C@H](C(=O)O)CC4)n4ncnc(N)c34)[nH]c12 [OSI-027] (3000 nM) in terms of normalised viability is 42.9

The reported value for CN(C)C/C=C/C(=O)Nc1cc2c(Nc3ccc(F)c(Cl)c3)ncnc2cc1O[C@H]1CCOC1 [Afatinib] (3000 nM) in terms of normalised viability is 86.2

* * *

# Test system: HDQ-P1
# TEST_DETAILS: normalised viability (% of control), CellTiter-Blue; higher = more viable cells (about 100 = DMSO control)
# CONDITION_INFO: incubation time: 72 h
ENDPOINT_LABEL: normalised viability (%)
Give the value, in units of %, as a plain number.

Some compounds with recorded normalised viability:
INSERT INTO assay_data (compound, reported_result) VALUES
  ('N#CC[C@H](C1CCCC1)n1cc(-c2ncnc3[nH]ccc23)cn1 [Ruxolitinib] (1000 nM)', 91.1),
  ('CN(C)C/C=C/C(=O)Nc1cc2c(Nc3ccc(F)c(Cl)c3)ncnc2cc1O[C@H]1CCOC1 [Afatinib] (1000 nM)', 49.8);

The reported value for CN1CCC(COc2cnc(-c3cccc(Cn4nc(-c5cccc(C#N)c5)ccc4=O)c3)nc2)CC1 (1000 nM) in terms of normalised viability is 95

The reported value for Cc1ccc(F)c(NC(=O)Nc2ccc(-c3cccc4[nH]nc(N)c34)cc2)c1 [Linifanib] (100 nM) in terms of normalised viability is 113

The reported value for C=CC[C@@H]1/C=C(\C)C[C@H](C)C[C@H](OC)[C@H]2O[C@@](O)(C(=O)C(=O)N3CCCC[C@H]3C(=O)O[C@H](/C(C)=C/[C@@H]3CC[C@@H](O)[C@H](OC)C3)[C@H](C)[C@@H](O)CC1=O)[C@H](C)C[C@@H]2OC [Tacrolimus] (1000 nM) in terms of normalised viability is 111

* * *

# Lookup of reported normalised viability keyed by entry
# Test system: HDQ-P1
# TEST_DETAILS: normalised viability (% of control), CellTiter-Blue; higher = more viable cells (about 100 = DMSO control)
# CONDITION_INFO: incubation time: 72 h
Give the value, in units of %, as a plain number.

Some compounds with recorded normalised viability:
INSERT INTO assay_data (compound, measurement_units, reported_result) VALUES
  ('CN(C)C/C=C/C(=O)Nc1cc2c(Nc3ccc(F)c(Cl)c3)ncnc2cc1O[C@H]1CCOC1 [Afatinib] (300 nM)', '%', 46.1),
  ('Nc1ccn([C@@H]2O[C@H](CO)[C@@H](O)[C@@H]2O)c(=O)n1 [Cytarabine] (300 nM)', '%', 75.1),
  ('N#CC[C@H](C1CCCC1)n1cc(-c2ncnc3[nH]ccc23)cn1 [Ruxolitinib] (300 nM)', '%', 73.3),
  ('CS(=O)(=O)c1ccc(C(=O)Nc2ccc(Cl)c(-c3ccccn3)c2)c(Cl)c1 [Vismodegib] (300 nM)', '%', 44),
  ('COc1cc(Nc2ncc3c(n2)-c2ccc(Cl)cc2C(c2c(F)cccc2OC)=NC3)ccc1C(=O)O [MLN8237] (300 nM)', '%', 44.1);

Record Clc1ccc(C(c2ccccc2Cl)C(Cl)Cl)cc1 (stereo not drawn) [Mitotane] (300 nM) ; system HDQ-P1; normalised viability = 92.5

Record CN1CC[C@H](c2c(O)cc(O)c3c(=O)cc(-c4ccccc4Cl)oc23)[C@H](O)C1 [Alvocidib] (300 nM) ; system HDQ-P1; normalised viability = 24.5

Record CC[C@]1(O)C[C@@H]2CN(CCc3c([nH]c4ccccc34)[C@@](C(=O)OC)(c3cc4c(cc3OC)N(C)[C@H]3[C@@](O)(C(=O)OC)[C@H](OC(C)=O)[C@]5(CC)C=CCN6CC[C@]43[C@@H]65)C2)C1 [Vinblastine] (30 nM) ; system HDQ-P1; normalised viability = 31.5
